method-description: NCI Yeast Anticancer Drug Screen. Data for the mec2-1 strain (AID 157)
measurement-context: S. cerevisiae mec2-1 strain, at 50.0 µM, stronger effect = higher value
This is part of a sample that, as a whole, favours compounds with a hit. Of some 79,000 tested, about 15% had one in any assay.
quantity-kind: growth inhibition (%)
Express it in %; write the number only.

Here are 3 compounds together with their reported answers.
O=C1Cn2c(cc(=O)c3ccccc32)O1; 13.6
CCn1c2ccc(N=C=O)cc2c2c3[nH]c(=O)c4cccn4c3ccc21; 10.2
Nc1c(OS(=O)(=O)c2ccccc2)cccc1OS(=O)(=O)c1ccccc1; -2.45

The record that follows has no growth inhibition shown yet.
Input line: Return reported growth inhibition; argument: Cc1ccnc(Nc2nnc(Nc3cc(C)ccn3)c3ccccc23)c1
Output line: -12.6

---

method-description: NCI Yeast Anticancer Drug Screen. Data for the sgs1 mgt1 strain (AID 161);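 note: 0% = growth of cultures given vehicle only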
measurement-context: S. cerevisiae sgs1 mgt1 strain, at 50.0 µM, stronger effect = higher value
This is part of a sample that, as a whole, favours compounds with a hit. Of some 79,000 tested, about 15% had one in any assay.
Each record here notes measured growth inhibition.
Only the number, expressed in %, is required.

As a guide, the following entries are already answered.
CCCCCCCCCCC(=O)OCC; -21.4
CC(=O)C1CC[C@@]2(C)C(CC[C@H]3[C@@H]4CCC[C@H]([C@H](C)O)[C@@]4(C)CC[C@@H]32)C1 (some centres not stated); 2.9
N#Cc1cc(N2CCCCC2)ccc1[N+](=O)[O-]; -6.2

Input line: Recorded growth inhibition of Cc1cc(Br)ccc1C1=C(O)C(=O)NC1=O , please.
Output line: 10.7

Input line: What do we get for Cc1cc2c(cc1C)NC(C)CC(=O)N2 (configuration not stated) ?
Output line: 4.2

Input line: How about this compound: OCC1OC(n2nc(-c3ccccc3)nc2-c2cnccn2)C(O)C(O)C1O (configuration not stated)
Output line: -31.4

Input line: Thanks! And O=C1C=C(N2CCCC2)c2ccccc21 ?
Output line: 3.85

Input line: Now the same for C(=N/Nc1ccccn1)/NN/C=N/Nc1ccccn1
Output line: -3.8

---

method-description: NCI Yeast Anticancer Drug Screen. Data for the sgs1 mgt1 strain (AID 161);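 note: 0% = growth of cultures given vehicle only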
measurement-context: S. cerevisiae sgs1 mgt1 strain, at 50.0 µM, stronger effect = higher value
Compounds without any hit were thinned out: in the full panel of roughly 79,000, 15% have a hit. Active and inactive are the calls of the source. Cut-off read from the data, not from the text of the source: active = growth inhibition above about 70%; inactive = the rest.
quantity-kind: growth inhibition

The cases that follow already have their growth inhibition on record.
CSc1ccc2c(cc1=O)[C@@H](NC(C)=O)CCc1cc(O)c(O)c(O)c1-2; 18.1% (inactive)
O=C(CBr)OCCC1CCCCC1; 47.9% (inactive)
CCN(CC)CCOC(=O)c1ccc(N=Nc2cc(C(=O)O)ccc2O)cc1; 4.1% (inactive)
O=C(Oc1cccc2ccccc12)c1ccccc1; -5.2% (inactive)
COC1CCC(OC)(C(=O)NN)O1 (stereo unspecified); -9.45% (inactive)

Let's switch to this molecule now.
Input line: Given CCOC(=O)C1=C(O)C(=O)N(Cc2ccccc2)C1 , state its recorded growth inhibition.
Output line: 14.3% (inactive)

---

method-description: NCI Yeast Anticancer Drug Screen. Data for the cln2 rad14 strain (AID 165);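 note: 0% = growth equal to vehicle treated cultures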
measurement-context: S. cerevisiae cln2 rad14 strain, at 50.0 µM
Description: Growth inhibition of yeast strains with defined genetic alterations is measured as a screen for potential anti-cancer activity. Selected strains with alterations in DNA damage repair or cell cycle control were exposed to compounds and growth inhibition was measured relative to vehicle treated controls. The strain used in this assay is cln2 rad14
The panel holds about 79,000 compounds, 15% with a hit somewhere; the sample as a whole holds those more often. Active and inactive are the calls of the source. Cut-off read from the data, not from the text of the source: active = growth inhibition above about 70%; inactive = the rest.
Hi! Could you answer with just one of these? active, inactive

CC(NC(=O)C(N)CCC(=O)O)C(=O)NCP(=O)(O)O (stereo unspecified); inactive
CC(CCC(=O)CS(C)=O)C1CCC2C3CCC4CCCCC4(C)C3CCC12C (stereo unspecified); inactive
O=C(NCCCCCCNC(=O)C1CCCN1C(=O)OCc1ccccc1)C1CCCN1C(=O)OCc1ccccc1 (stereo unspecified); inactive
CC(=O)c1c(-c2ccc(Cl)cc2)c(-c2ccc(Cl)cc2)nn(CCNC(C)C)c1=O; active
O=C(NC[N+]12CCO[B-]1(c1ccccc1)OCC2)c1ccccc1O (stereo unspecified); inactive

Input line: Recorded test outcome, item COc1ccc(Cc2cc(N=O)c(OC)cc2O)cc1
Output line: inactive

---

method-description: NCI Yeast Anticancer Drug Screen. Data for the sgs1 mgt1 strain (AID 161);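 note: 0% = growth of cultures given vehicle only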
measurement-context: S. cerevisiae sgs1 mgt1 strain, at 50.0 µM, stronger effect = higher value
This is part of a sample that, as a whole, favours compounds with a hit. Of some 79,000 tested, about 15% had one in any assay.
quantity-kind: growth inhibition (%)
Express it in %; write the number only.

Some compounds with recorded growth inhibition:
CCc1ncc(C)[nH]1; -6.35
Cc1ccc(C)c(NC(=O)CC/C(=N\NC(=O)c2c(O)ccc3ccccc23)C(C)C(=O)c2ccc(O)cc2)c1 (centres undefined); -5.55
Cc1ccc(S(=O)(=O)N(C)c2cc(Cl)c(I)cc2Cl)cc1; 8.9

Here is the next item to consider.
Input line: Field request: growth inhibition | item: CC1OC(=O)C(O)=C1O (centres undefined)
Output line: -5.75

Values were extracted from PubChem BioAssay (NCI).
